# targetUnderTest: LPA5 receptor (Homo sapiens (Human), UniProt Q9H1C0)
# Sequence (Q9H1C0 whole entry): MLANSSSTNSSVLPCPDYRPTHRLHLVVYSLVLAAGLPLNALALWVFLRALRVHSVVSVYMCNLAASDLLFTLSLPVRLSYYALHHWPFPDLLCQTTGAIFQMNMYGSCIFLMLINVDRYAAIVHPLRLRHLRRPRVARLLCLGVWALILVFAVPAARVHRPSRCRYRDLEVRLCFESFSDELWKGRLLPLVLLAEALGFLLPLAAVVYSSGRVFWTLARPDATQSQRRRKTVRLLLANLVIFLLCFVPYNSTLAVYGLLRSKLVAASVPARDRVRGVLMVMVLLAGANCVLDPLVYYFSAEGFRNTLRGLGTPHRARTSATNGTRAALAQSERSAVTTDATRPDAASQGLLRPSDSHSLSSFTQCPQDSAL
# methodNotes: In vitro LPA5 receptor assay (LPA-driven intracellular calcium release, FLIPR)
# statedConditions: RH7777 cells expressing human LPA5 receptors; LPA at EC90
measuredProperty: IC50 (µM)

Worked cases, IC50 given:
compound: COc1ccccc1Oc1ccc(C(=O)N(Cc2ccc(C(=O)O)cc2)CC(C)C)cc1 [Example 30]
readoutUnits: µM
quantitativeResult: 0.012
--
compound: COc1cccc(F)c1Oc1ccc(C(=O)N(Cc2ccc(C(=O)O)cc2)CC2CC2)cc1 [Example 67]
readoutUnits: µM
quantitativeResult: 0.005
--
compound: O=C(O)c1ccc(CN(CCc2ccccc2)C(=O)c2ccc(Oc3ccccc3Cl)cc2)cc1 [Example 36]
readoutUnits: µM
quantitativeResult: 0.024

(1) O=C(O)c1ccc(CN(CCCCc2ccccc2)C(=O)c2ccc(Oc3ccccc3F)cc2)cc1 [Example 21]
(2) O=C(O)c1ccc(CN(CC2CC2)C(=O)c2ccc(Oc3ccccc3F)cc2)cc1 [Example 5]
**Q:** Sorting ascending by IC50, which comes first: 1 or 2 ? Record your answer as the label of the chosen record.
**A:** 1
